Cited source for all entries: PubChem BioAssay (NCI)

METHOD SUMMARY: NCI Yeast Anticancer Drug Screen. Data for the cln2 rad14 strain (AID 165);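 further: 0% = growth equal to vehicle treated cultures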
CONDITIONS USED: S. cerevisiae cln2 rad14 strain, at 50.0 µM (retest, dose inferred, filed as 5.0), hits give high values
About 79,000 compounds went through this panel and 15% of them were active in at least one assay; those are over-represented in the sample as a whole.
# growth inhibition values compiled below
Your answer should be a plain number; it is taken to be in %.

Clc1ccc2ns[s+]c2c1 = 49

Entry O=c1[nH]ncc(SCc2ccccc2)c1SCc1ccccc1 — recorded growth inhibition = 31

What the record says about CC(=O)c1c(O)c(C)c(O)c2c1OC1=CC(=O)c3c(C)noc3C12C (stereo not given) : growth inhibition is 16

The measured growth inhibition associated with CNC1=C2NC(=O)/C(C)=C\C=C\C(C)C(O)C(C)C(O)C(C)C(OC(C)=O)C(C)C(OC)/C=C/OC3(C)Oc4c(C)c(O)c(c(c4C3=O)C1=O)C2=O (stereo not given) reads 59

Measured growth inhibition of OC1(c2ccccc2)c2ccccc2Sc2ccccc21 : 99

====

METHOD SUMMARY: NCI Yeast Anticancer Drug Screen. Data for the rad50 strain (AID 155);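 further: 0% = growth of vehicle-only cultures of the same strain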
CONDITIONS USED: S. cerevisiae rad50 strain growth inhibition; at 50.0 µM
This is part of a sample that, as a whole, favours compounds with a hit. Of some 79,000 tested, about 15% had one in any assay. Active and inactive are the calls of the source. Cut-off read from the data, not from the text of the source: active = growth inhibition above about 70%; inactive = the rest.
Tick one outcome: Yes for active, No for inactive

Example entries begin here.
CCc1cccc(CC)c1NC(=S)N/C=C(\C#N)C(=O)c1ccc2ccccc2c1 = No
C[N+](C)(C)CC(=O)N/N=C/c1oc(-c2c(O)ccc3ccccc23)c(-c2c(O)ccc3ccccc23)c1[N+](=O)[O-] = Yes
C=C1CC(Cn2cc(C)c(=O)[nH]c2=O)(c2ccc(Cl)cc2)OC1=O (configuration not stated) = No
CCOC(=O)C(C)(C)Oc1ccc2c(=O)cc(-c3ccccc3)oc2c1 = Yes

Exercise: In this assay, the call recorded for CC1CCC(C)(C)c2cc([N+](=O)[O-])cc([N+](=O)[O-])c21 (configuration not stated) was what?
Solution: No

Exercise: What was the test verdict on Cc1ccc(Cc2nc(=S)[nH][nH]2)cc1 ?
Solution: No

Exercise: # lookup: test call for Nc1cccc2c1C(=O)c1cccc(Cl)c1C2=O
Solution: Yes

Exercise: Returns: the outcome recorded for Cc1ccc(C(=O)/C=C/c2ccccc2)cc1 in this assay.
Solution: No

Exercise: Please indicate how the test categorized COc1ccc(-c2cc3ccccc3c(=O)n2Cc2ccccc2)cc1 .
Solution: Yes

Exercise: Recorded call for CCCCCC(C)C1=NC(C)(C)CC(C)O1 (configuration not stated) ?
Solution: No

Exercise: Which result was noted for this molecule in the test: COC(=O)c1cc(-c2c[nH]cc2C(=O)OCc2ccccc2)cn1S(=O)(=O)c1ccc(C)cc1
Solution: Yes

Exercise: Assay outcome for CCN(CC)CCNc1c(OC)cc(C)c2sc3ccccc3c(=O)c12 : what was it?
Solution: Yes

Exercise: For Cc1nc(C(N)=S)sc1/C(CC(=O)C(=O)Nc1cccc2ccc(O)cc12)=N\NC(=O)c1ccncc1 , which call appears in the assay record?
Solution: No

Exercise: Hi, sorry to bother you, what did the test record for CCCCN(CCCC)CC(O)c1cc(-c2ccc(Cl)cc2)nc2c(Cl)cccc12 (configuration not stated) ?
Solution: Yes

Exercise: Answer briefly: the call reported for CCN(CC)CCCC(=O)Nc1cc(OC)cc2cccnc12 in this assay.
Solution: No

Exercise: Test call, this molecule: Cc1cc2oc3c(ccc(=O)n3C)c(=O)c2c(C)c1Cl
Solution: No

Exercise: So what was the verdict on O=C(Nc1ccc(Cl)c(Cl)c1Cl)Oc1c(Cl)c(Cl)c(Cl)c(Cl)c1Cl in this test?
Solution: Yes
